Experiment: FTIH study: single dose (Day 1) pharmacokinetics of Compound tablets
Format: in vivo
Conditions: plasma, oral; human, Day 1, fasting, 6.0 mg loading dose, mean (CV %), N 10; read-out: C24
assay_metric: concentration at 24 h (ng/mL)
A number alone suffices; assume ng/mL.

Incoming: Return reported concentration at 24 h. Input compound: CC(=O)Nc1cccc(-n2c(=O)n(C3CC3)c(=O)c3c(Nc4ccc(I)cc4F)n(C)c(=O)c(C)c32)c1 [Compound]
Outgoing: 6.58

====

Test: clinical
Conditions: human, plasma, po, 2 mg
assay_metric: Tmax (h)
A number alone suffices; assume h.

Incoming: Return reported Tmax. Input compound: CC(=O)Nc1cccc(-n2c(=O)n(C3CC3)c(=O)c3c(Nc4ccc(I)cc4F)n(C)c(=O)c(C)c32)c1
Outgoing: 1.75

====

Test: in vivo
Conditions: male, Sprague-Dawley, rat, in vivo, po, 0.5 mg/m2
Excerpt: […]
assay_metric: Cmax (ng/mL)
A number alone suffices; assume ng/mL.

Incoming: Return reported Cmax. Input molecule: CC(=O)Nc1cccc(-n2c(=O)n(C3CC3)c(=O)c3c(Nc4ccc(I)cc4F)n(C)c(=O)c(C)c32)c1
Outgoing: 15.4

====

Assay: clinical
Details: human, plasma, po, 2 mg
assay_metric: concentration at 24 h

Incoming: Return reported concentration at 24 h. Input compound: CC(=O)Nc1cccc(-n2c(=O)n(C3CC3)c(=O)c3c(Nc4ccc(I)cc4F)n(C)c(=O)c(C)c32)c1
Outgoing: 0.0123 µg/mL

====

Test: in vivo
Settings: female, Sprague Dawley, rat, in vivo, po, 0.125 mg/m2
assay_metric: Cmax at 3 weeks (ng/mL)
A number alone suffices; assume ng/mL.

Incoming: Return reported Cmax at 3 weeks. Input compound: CC(=O)Nc1cccc(-n2c(=O)n(C3CC3)c(=O)c3c(Nc4ccc(I)cc4F)n(C)c(=O)c(C)c32)c1
Outgoing: 3.33

====

Test: FTIH study: single dose (Day 1) pharmacokinetics of Compound tablets
Assay type: in vivo
Settings: plasma, oral; human, Day 1, fasting, 6.0 mg loading dose, mean (CV %), N 10
assay_metric: Cmax (ng/mL)
A number alone suffices; assume ng/mL.

Incoming: Return reported Cmax. Input compound: CC(=O)Nc1cccc(-n2c(=O)n(C3CC3)c(=O)c3c(Nc4ccc(I)cc4F)n(C)c(=O)c(C)c32)c1 [Compound]
Outgoing: 23.2

====

Test: FTIH study: single dose (Day 1) pharmacokinetics of Compound tablets
Format: in vivo
Settings: plasma; human, single oral dose Day 1, fasting, 2.0 mg, median, N 3; read-out: Tmax
assay_metric: Tmax (h)
A number alone suffices; assume h.

Incoming: Return reported Tmax. Input compound: CC(=O)Nc1cccc(-n2c(=O)n(C3CC3)c(=O)c3c(Nc4ccc(I)cc4F)n(C)c(=O)c(C)c32)c1 [Compound]
Outgoing: 1.5

====

Assay: in vivo
Details: female, beagle, dog, in vivo, po, 0.3 mg/m2
assay_metric: Cmax (ng/mL)
A number alone suffices; assume ng/mL.

Incoming: Return reported Cmax. Input compound: CC(=O)Nc1cccc(-n2c(=O)n(C3CC3)c(=O)c3c(Nc4ccc(I)cc4F)n(C)c(=O)c(C)c32)c1
Outgoing: 7.24

====

Experiment: clinical
Settings: human, plasma, po, 2.5 mg
assay_metric: concentration at 24 h (ng/mL)
A number alone suffices; assume ng/mL.

Incoming: Return reported concentration at 24 h. Input compound: CC(=O)Nc1cccc(-n2c(=O)n(C3CC3)c(=O)c3c(Nc4ccc(I)cc4F)n(C)c(=O)c(C)c32)c1
Outgoing: 17

====

Assay: in vivo
Settings: male, Sprague-Dawley, rat, in vivo, po, 0.5 mg/m2
assay_metric: AUC (ng·h/mL)
A number alone suffices; assume ng·h/mL.

Incoming: Return reported AUC. Input compound: CC(=O)Nc1cccc(-n2c(=O)n(C3CC3)c(=O)c3c(Nc4ccc(I)cc4F)n(C)c(=O)c(C)c32)c1
Outgoing: 277

====

Assay: FTIH study: single dose (Day 1) pharmacokinetics of Compound tablets
Format: in vivo
Details: plasma, oral; human, Day 1, fasting, 8.0 mg loading dose, mean (CV %), N 7; read-out: C24
assay_metric: concentration at 24 h

Incoming: Return reported concentration at 24 h. Input molecule: CC(=O)Nc1cccc(-n2c(=O)n(C3CC3)c(=O)c3c(Nc4ccc(I)cc4F)n(C)c(=O)c(C)c32)c1
Outgoing: 5.81 ng/mL

====

Experiment: clinical
Conditions: human, plasma, po, 3 mg
assay_metric: Cmax

Incoming: Return reported Cmax. Input compound: CC(=O)Nc1cccc(-n2c(=O)n(C3CC3)c(=O)c3c(Nc4ccc(I)cc4F)n(C)c(=O)c(C)c32)c1 [Compound]
Outgoing: 35.8 ng/mL

====

Experiment: FTIH study: single dose (Day 1) pharmacokinetics of Compound tablets
Format: in vivo
Conditions: plasma, oral; human, Day 1, fasting, 10.0 mg loading dose, mean (CV %), N 4; read-out: C24
assay_metric: concentration at 24 h (ng/mL)
A number alone suffices; assume ng/mL.

Incoming: Return reported concentration at 24 h. Input compound: CC(=O)Nc1cccc(-n2c(=O)n(C3CC3)c(=O)c3c(Nc4ccc(I)cc4F)n(C)c(=O)c(C)c32)c1
Outgoing: 25.5

====

Experiment: FTIH study: single dose (Day 1) pharmacokinetics of Compound tablets
Assay type: in vivo
Conditions: plasma; human, single oral dose Day 1, fasting, 4.0 mg, mean (CV %), N 3; read-out: C24
assay_metric: concentration at 24 h (ng/mL)
A number alone suffices; assume ng/mL.

Incoming: Return reported concentration at 24 h. Input compound: CC(=O)Nc1cccc(-n2c(=O)n(C3CC3)c(=O)c3c(Nc4ccc(I)cc4F)n(C)c(=O)c(C)c32)c1
Outgoing: 8.77
